Test system: human intestinal epithelial cell line NCM460
Test: Cell growth inhibitory (cytotoxic) activity assay
Format: cell-based
Conditions: NCM460 (normal intestinal epithelial cell line)
quantity-kind: IC50 (µM)
Give just the numeric value; µM need not be written.

Quick one: IC50 for N.N.[Cl][Pt][Cl] [Cisplatin, reference compound] ?
3.17

###

System: TNBC cell lines MDA-MB-231, MDA-MB-468, and Bt-549
Assay: Cytotoxicity, span over TNBC cell lines
Type: cell-based
Conditions: Homo sapiens; span over MDA-MB-231, MDA-MB-468 and Bt-549; read-out: IC50 values, range against TNBC cell lines
quantity-kind: IC50

Cc1cc(O)c2c3c(c(O)c(C4CC(N)C(O)C(C)O4)c2c1)C(=O)c1c(O)cccc1C3=O (centres unmarked) [Mayamycin B (2), mayamycin B]: 3.01 to 6.08 µM

Here's the next entry for you.
Requested read-out IC50, target or system TNBC cell lines MDA-MB-231, MDA-MB-468, and Bt-549, entry C[C@]1(O)CC(=O)c2c(cc(O)c3c2C(=O)c2cccc(O)c2C3=O)C1 [Rabelomycin (3), rabelomycin]
2.18 to 8.67 µM

###

Tested on: colorectal cancer cell line SW480
Assay: Cell growth inhibitory (cytotoxic) activity assay
Type: cell-based, human
Conditions: Homo sapiens; SW480 (colorectal cancer)
quantity-kind: IC50 (nM)
Give just the numeric value; nM need not be written.

# example entries with known answers
COc1cccc2c1C(=O)c1c(O)c3c(c(O)c1C2=O)C[C@@](O)(C(=O)CO)C[C@@H]3O[C@H]1C[C@H](N)[C@H](O)[C@H](C)O1 [Adriamycin, reference compound]: 17500
Cc1cc(O)c2c3c(c(O)c(C4CC(N)C(O)C(C)O4)c2c1)C(=O)c1c(O)cccc1C3=O (stereo not drawn): 2870

Here's the next entry for you.
Quick one: IC50 for C[C@]1(O)CC(=O)c2c(cc(O)c3c2C(=O)c2cccc(O)c2C3=O)C1 ?
1570

###

Test system: hepatocellular cancer line HEPG2
Assay: Cell growth inhibitory (cytotoxic) activity assay
Format: cell-based, human
quantity-kind: pIC50
Remember, pIC50 is on a log scale: it is -log10 of the molar concentration.

Quick one: pIC50 for N.N.[Cl][Pt][Cl] [Cisplatin, reference compound] ?
4.96

###

Tested on: triple-negative breast cancer cell line Bt-549
Test: Cell growth inhibitory (cytotoxic) activity assay
Format: cell-based, human
Conditions: Bt-549 (TNBC)
quantity-kind: pIC50
Remember, pIC50 is on a log scale: it is -log10 of the molar concentration.

Quick one: pIC50 for N.N.[Cl][Pt][Cl] [Cisplatin, reference compound] ?
5.12

###

System: hepatocellular cancer line HEPG2
Assay: Cell growth inhibitory (cytotoxic) activity assay
Assay type: cell-based, human
Details: Homo sapiens
quantity-kind: pIC50
Remember, pIC50 is on a log scale: it is -log10 of the molar concentration.

Cc1cc(O)c2c3c(c(O)c(C4CC(N)C(O)C(C)O4)c2c1)C(=O)c1c(O)cccc1C3=O (stereo not drawn): 5.22

Quick one: pIC50 for COc1cccc2c1C(=O)c1c(O)c3c(c(O)c1C2=O)C[C@@](O)(C(=O)CO)C[C@@H]3O[C@H]1C[C@H](N)[C@H](O)[C@H](C)O1 [Adriamycin, reference compound] ?
4.81

Please give the result for C[C@]1(O)CC(=O)c2c(cc(O)c3c2C(=O)c2cccc(O)c2C3=O)C1 too.
5.06

The origin of these recorded values is paper PMC10817512.
